Please go through the items and note down their GI50.
# System: SK-MEL-2
# experiment: NCI tumour cell line growth inhibition, 48 h
Activity calls are given as the source filed them. Cut-off read from the data, not from the text of the source: active = GI50 up to about 1.1 µM and inactive = higher.

q: Identify the measured GI50 of NC(=O)c1ccc(N)nc1 [6-AMINONICOTINAMIDE] for SK-MEL-2.
a: 124 µM (inactive)

q: Identify the measured GI50 of CCCCCCCCCCCCCP(=O)(NCC(N)=O)OCC (stereo not drawn) for SK-MEL-2.
a: 16.3 µM (inactive)

q: Identify the measured GI50 of NNc1nnc(-c2ccccc2)nc1Cc1ccccc1 for SK-MEL-2.
a: 6.35 µM (inactive)

====

# Test system: SN12C
# experiment: NCI tumour cell line growth inhibition, 48 h
Active and inactive are the calls of the source. Cut-off read from the data, not from the text of the source: active = GI50 up to about 1.1 µM and inactive = higher.
// one of active, inactive, no free text

q: Identify the outcome logged in this assay for the compound shown: C[C@@H]1C[C@H](O)[C@]2(O)O[C@@H]3C[C@@]4(C=O)[C@@H](CC[C@@H]5[C@@H]4CC[C@]4(C)[C@@H](C6=CC(=O)OC6)CC[C@]54O)C[C@H]3O[C@@H]2O1
a: active

q: Identify the outcome logged in this assay for the compound shown: COC(=O)c1cc(Cl)ccc1NC(=O)C1CCCCC1
a: inactive

q: Identify the outcome logged in this assay for the compound shown: C=C1C(=O)O[C@H]2C1C[C@H](O)[C@@]1(C)OC1CC[C@@]1(C)O[C@H]21 (stereo partly drawn)
a: inactive

q: Identify the outcome logged in this assay for the compound shown: Nc1ccccc1[S+]([O-])c1ccccc1 (stereo not drawn)
a: inactive

q: Identify the outcome logged in this assay for the compound shown: CCOC(=O)c1cc2c3ccn(Cc4ccccc4)c3c3c(C)noc3c2[nH]1
a: inactive

q: Identify the outcome logged in this assay for the compound shown: NS(=O)(=O)c1ccc(-n2c(-c3cccs3)nc3ccc(I)cc3c2=O)cc1
a: inactive

q: Identify the outcome logged in this assay for the compound shown: COc1cc(/C=C(\C)c2ccc3c(c2)OCO3)cc(OC)c1OC
a: inactive

q: Identify the outcome logged in this assay for the compound shown: CC(=O)N1CC2Nc3ccccc3C2CC1CO (stereo not drawn)
a: inactive

q: Identify the outcome logged in this assay for the compound shown: COC(=O)C1C(C(=O)OC)N(Cc2ccccc2)C(=O)N1Cc1ccccc1 (stereo not drawn)
a: inactive

q: Identify the outcome logged in this assay for the compound shown: CCOC(=O)[C@]12C3C=CC(C3)C1C(=O)C1OC12 (stereo partly drawn)
a: inactive

q: Identify the outcome logged in this assay for the compound shown: COc1ccc2nc3c([N+](=O)[O-])ccc4c3c(c2c1)N=CN4CCCN(C)C
a: inactive

q: Identify the outcome logged in this assay for the compound shown: CC(=O)O[C@H]1CC[C@H]2[C@@H]3CCC4=C/C(=N/OCCN(C)C)CC[C@]4(C)[C@H]3CC[C@]12C
a: inactive

q: Identify the outcome logged in this assay for the compound shown: C[C@@H]1C2=CC[C@@]3(C)C(CCC3[C@H](C)[C@H]3C[C@@]4(C)O[C@@](c5cccnc5)(O3)OC4(C)C)[C@@H]2C2OC2[C@@]12CCC(=O)O2 (stereo partly drawn)
a: inactive
